system: U87MG spheroids; test: Antiproliferative activity, 3D spheroids, CellTiter-Glo 3D assay; type: cell-based, human; settings: U87MG 3D spheroids, dark; 90 min treatment, 70 h drug-free; CellTiter-Glo 3D; read-out: IC50 3D Dark
quantity-name: IC50 (µM)
Just the number in µM, nothing appended.

Please give the measured IC50 for this compound: COC(=O)c1ccc2c(c1)[n+]1c(n2Cc2ccc(C(F)(F)F)cc2)-c2cccc[c]2[Ir-3]123([Cl])[n+]1ccccc1-c1cc(-c4ccc(C)cc4)cc([n+]12)-c1cccc[n+]13.F[P-](F)(F)(F)(F)F
41.3

Input Cc1ccc(-c2cc3[n+]4c(c2)-c2cccc[n+]2[Ir-3]42([Cl])([c]4ccsc4-c4n(Cc5ccc(C(F)(F)F)cc5)c5ccccc5[n+]42)[n+]2ccccc2-3)cc1.F[P-](F)(F)(F)(F)F
16.4

Another compound to look at: Cc1ccc(-c2cc3[n+]4c(c2)-c2cccc[n+]2[Ir-3]42([Cl])([c]4cc5ccccc5cc4-c4n(C)c5ccccc5[n+]42)[n+]2ccccc2-3)cc1.F[P-](F)(F)(F)(F)F
10.8

Request: Cc1ccc(-c2cc3[n+]4c(c2)-c2cccc[n+]2[Ir-3]42([Cl])([c]4ccsc4-c4n(C)c5ccccc5[n+]42)[n+]2ccccc2-3)cc1.F[P-](F)(F)(F)(F)F
19.3

Check Cc1ccc(-c2cc3[n+]4c(c2)-c2cccc[n+]2[Ir-3]42([Cl])([c]4ccccc4-c4n(C)c5ccccc5[n+]42)[n+]2ccccc2-3)cc1.F[P-](F)(F)(F)(F)F too.
26

Just for reference, paper PMC12261233 is where these values come from.
